- study-system: GlyT2 E701A mutant (Homo sapiens, UniProt Q9Y345, E701A)
- Sequence (Q9Y345 whole entry E701A): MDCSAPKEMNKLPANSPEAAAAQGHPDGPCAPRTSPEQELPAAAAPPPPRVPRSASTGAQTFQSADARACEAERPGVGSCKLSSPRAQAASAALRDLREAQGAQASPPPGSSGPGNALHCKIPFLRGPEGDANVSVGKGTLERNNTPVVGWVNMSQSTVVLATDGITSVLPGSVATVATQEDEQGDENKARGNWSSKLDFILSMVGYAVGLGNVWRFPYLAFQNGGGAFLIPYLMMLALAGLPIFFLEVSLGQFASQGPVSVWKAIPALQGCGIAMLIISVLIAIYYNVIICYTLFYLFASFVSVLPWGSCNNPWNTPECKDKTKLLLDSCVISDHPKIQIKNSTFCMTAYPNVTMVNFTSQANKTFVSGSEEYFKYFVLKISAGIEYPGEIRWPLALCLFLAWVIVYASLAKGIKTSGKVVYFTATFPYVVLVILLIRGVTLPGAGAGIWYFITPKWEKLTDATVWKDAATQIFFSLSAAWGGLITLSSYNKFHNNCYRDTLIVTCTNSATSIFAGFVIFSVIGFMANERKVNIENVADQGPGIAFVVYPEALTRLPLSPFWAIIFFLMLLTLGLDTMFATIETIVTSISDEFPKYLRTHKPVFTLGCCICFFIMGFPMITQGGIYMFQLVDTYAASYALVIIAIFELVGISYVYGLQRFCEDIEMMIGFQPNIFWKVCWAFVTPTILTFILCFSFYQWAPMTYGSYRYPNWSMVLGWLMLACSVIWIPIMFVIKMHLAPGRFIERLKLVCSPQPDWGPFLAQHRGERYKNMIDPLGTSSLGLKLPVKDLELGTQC
- applied-conditions: read-out: Glycine EC50; glycine transport, GlyT2 E701A (vestibule allosteric site)
readout: EC50
Put down the number, then write its unit next to it.

Input: Give the reported value of EC50 for this record: NCC(=O)O
Output: 16.5 µM

====

- study-system: GlyT2 F428A mutant (Homo sapiens, UniProt Q9Y345, F428A)
- Construct: expressed in transfected cells; host or cells: Xenopus laevis oocytes (cRNA injection)
- Sequence (Q9Y345 whole entry F428A): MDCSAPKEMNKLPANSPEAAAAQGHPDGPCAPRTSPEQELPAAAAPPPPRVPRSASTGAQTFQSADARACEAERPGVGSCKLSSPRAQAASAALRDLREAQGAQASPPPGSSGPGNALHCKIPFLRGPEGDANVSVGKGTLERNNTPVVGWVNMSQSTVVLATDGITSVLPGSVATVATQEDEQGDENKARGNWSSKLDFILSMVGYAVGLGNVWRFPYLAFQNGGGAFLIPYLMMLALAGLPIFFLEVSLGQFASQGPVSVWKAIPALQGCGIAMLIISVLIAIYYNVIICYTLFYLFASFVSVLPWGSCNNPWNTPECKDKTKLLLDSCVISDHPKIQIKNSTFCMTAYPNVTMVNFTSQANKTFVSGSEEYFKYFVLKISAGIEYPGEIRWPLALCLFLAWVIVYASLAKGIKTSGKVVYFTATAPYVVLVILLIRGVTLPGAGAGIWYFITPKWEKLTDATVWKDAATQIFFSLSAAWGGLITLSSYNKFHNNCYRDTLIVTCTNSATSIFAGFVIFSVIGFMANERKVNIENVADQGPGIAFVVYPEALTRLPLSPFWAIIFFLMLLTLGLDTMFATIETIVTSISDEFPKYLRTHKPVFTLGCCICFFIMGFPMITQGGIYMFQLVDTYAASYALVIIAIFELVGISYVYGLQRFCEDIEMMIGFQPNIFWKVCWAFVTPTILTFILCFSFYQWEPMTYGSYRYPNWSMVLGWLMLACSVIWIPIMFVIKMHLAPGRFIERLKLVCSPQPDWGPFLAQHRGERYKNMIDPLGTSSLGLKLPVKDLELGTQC
- test-name: Glycine transport currents, two electrode voltage clamp, oocytes expressing GlyT2 F428A
- Assay type: cell-based
- applied-conditions: GlyT2 F428A
readout: IC50

Input: Give the reported value of IC50 for this record: CCCCCCCC/C=C\CCCCCCCC(=O)O[C@H](CC(=O)[O-])C[N+](C)(C)C [oleoyl L-Carnitine, reference compound]
Output: > 3 µM

Input: Give the reported value of IC50 for this record: CCCCCCCC/C=C\CCCCCCCC(=O)N[C@@H](CCCCN)C(=O)O
Output: > 3 µM

Input: Give the reported value of IC50 for this record: CCCCCCCC/C=C\CCCCCCCC(=O)NCC(=O)O [N-oleoyl Glycine, reference compound]
Output: > 10 µM

Input: Give the reported value of IC50 for this record: CCCCC=CCCCCCCCC(=O)NCC(=O)O
Output: > 30 µM

Input: Give the reported value of IC50 for this record: CCCCCCCC=CCCCCCCCCC(=O)NCC(=O)O
Output: > 10 µM

====

Assign % Max. inhibition to each entry below.
- study-system: GlyT2 Y550L mutant (Homo sapiens, UniProt Q9Y345, Y550L)
- Construct: expressed in transfected cells; host or cells: Xenopus laevis oocytes (cRNA injection)
- Sequence (Q9Y345 whole entry Y550L): as the sequence (Q9Y345 whole entry F428A) above, with A428F, Y550L counted along it
- test-name: Glycine transport currents, two electrode voltage clamp, oocytes expressing GlyT2 Y550L
- Type: cell-based
- applied-conditions: GlyT2 Y550L; mean ± SEM

Input: Give the reported value of % Max. inhibition for this record: CCCCCCCC/C=C\CCCCCCCC(=O)N[C@@H](CCCCN)C(=O)O
Output: 48.2 ± 4.1 (p=0.0001) %

Input: Give the reported value of % Max. inhibition for this record: CCCCCCCC/C=C\CCCCCCCC(=O)N[C@@H](CO)C(=O)O
Output: 11.2 ± 1.6 (p=0.0001) %

Input: Give the reported value of % Max. inhibition for this record: CCCCCCCC/C=C\CCCCCCCC(=O)NCC(=O)O [N-oleoyl Glycine, reference compound]
Output: 34.8 ± 9.1 (p=0.0011) %

Input: Give the reported value of % Max. inhibition for this record: CCCCCCCC/C=C\CCCCCCCC(=O)N[C@@H](Cc1c[nH]c2ccccc12)C(=O)O
Output: 16.5 ± 1.7 (p=0.0001) %

Input: Give the reported value of % Max. inhibition for this record: CCCCCCCC/C=C\CCCCCCCC(=O)N[C@@H](CCCNC(=N)N)C(=O)O
Output: 9.3 ± 1.4 (p=0.0001) %

Input: Give the reported value of % Max. inhibition for this record: CCCCCCCC/C=C\CCCCCCCC(=O)N[C@H](C(=O)O)C(C)C
Output: 57.0 ± 5.1 (p=0.0028) %

Input: Give the reported value of % Max. inhibition for this record: CCCCCCCC/C=C\CCCCCCCC(=O)N[C@@H](CC(C)C)C(=O)O
Output: 41.1 ± 6.2 (p=0.0115) %

Input: Give the reported value of % Max. inhibition for this record: CCCCCCCC/C=C\CCCCCCCC(=O)O[C@H](CC(=O)[O-])C[N+](C)(C)C [oleoyl L-Carnitine, reference compound]
Output: 17.3 ± 1.4 (p=0.0001) %
